This collection of values is drawn from patent US20250289789A1.

- target or system: CDK4-NanoLuc fusion with CCND1 in 293T or 293 cells (Homo sapiens)
- Construct: host or cells: 293T (ATCC CRL-3216) or 293 (ATCC CRL-1573)
- procedure text: NanoBRET Target Engagement (TE) Intracellular Kinase Assay, CDK4/CCND1
- Assay type: cell-based
- condition: NanoBRET TE intracellular kinase assay, 2-hour incubation, read-out: NanoBRET-CDK4/D1 IC50
pIC50: −log10 of the molar value.
property name: pIC50

Example entries and their recorded answers appear below.
>>> result("CC(C)NC(=O)O[C@@H]1CC[C@H](c2cc(NC(=O)c3cc(-c4cccc(O)c4C=O)nn3C)n[nH]2)C1 [Compound 17, 2,2,2-trifluoroacetate]")
5.34
>>> result("COc1cc(O)c(C=O)c(OCC(=O)Nc2cc([C@H]3CC[C@@H](OC(=O)NCCC#N)C3)[nH]n2)c1")
5.10
>>> result("COc1cc(O)c(C=O)c(OCC(=O)Nc2cc([C@H]3CC[C@@H](OC(=O)N4CCCC4(C)C)C3)[nH]n2)c1")
6.32
>>> result("C#Cc1cccc(OCC(=O)Nc2cc([C@H]3CC[C@@H](OC(=O)NC(C)C)C3)[nH]n2)c1C=O")
5.39
>>> result("CC(C)NC(=O)O[C@@H]1CC[C@H](c2cc(NC(=O)c3ccc(C=O)c4[nH]ncc34)n[nH]2)C1")
6.32

[a] CC(C)NC(=O)O[C@@H]1CC[C@H](c2cc(NC(=O)COc3cc(OC(F)F)cc(O)c3C=O)n[nH]2)C1
[b] C#CCN(CC)C(=O)O[C@@H]1CC[C@H](c2cc(NC(=O)COc3cc(OC)cc(O)c3C=O)n[nH]2)C1
Q: Would you kindly point out which of a and b has the smaller pIC50 figure? Please identify the chosen entry by its label.
Ans: a
(a: 5.06, b: 5.63)

* * *

- target or system: CDK1-NanoLuc fusion with CCNB1 in 293T or 293 cells (Homo sapiens)
- Construct: host or cells: 293T (ATCC CRL-3216) or 293 (ATCC CRL-1573)
- Sequence (P06493 whole entry, the tested form may be a part): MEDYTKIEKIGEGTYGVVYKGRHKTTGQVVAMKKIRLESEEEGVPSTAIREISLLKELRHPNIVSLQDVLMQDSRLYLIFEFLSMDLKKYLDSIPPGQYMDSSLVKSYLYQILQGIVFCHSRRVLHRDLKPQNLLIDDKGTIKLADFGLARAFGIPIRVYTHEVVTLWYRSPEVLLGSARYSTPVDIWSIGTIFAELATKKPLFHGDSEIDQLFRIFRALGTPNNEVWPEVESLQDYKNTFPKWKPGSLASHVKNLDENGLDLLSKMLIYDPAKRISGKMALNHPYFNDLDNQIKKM
- Sequence (P14635 whole entry partner, the tested form may be a part): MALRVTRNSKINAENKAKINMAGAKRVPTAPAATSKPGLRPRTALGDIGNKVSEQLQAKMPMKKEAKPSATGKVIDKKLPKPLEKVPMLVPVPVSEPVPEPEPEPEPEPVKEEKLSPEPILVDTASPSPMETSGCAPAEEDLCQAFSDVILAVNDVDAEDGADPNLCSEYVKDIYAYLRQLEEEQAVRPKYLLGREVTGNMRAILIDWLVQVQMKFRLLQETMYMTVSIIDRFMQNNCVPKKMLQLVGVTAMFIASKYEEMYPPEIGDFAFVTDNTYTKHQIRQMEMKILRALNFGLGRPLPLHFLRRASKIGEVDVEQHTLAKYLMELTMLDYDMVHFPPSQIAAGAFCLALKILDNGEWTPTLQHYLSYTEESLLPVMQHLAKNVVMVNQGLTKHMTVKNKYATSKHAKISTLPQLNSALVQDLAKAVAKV
- procedure text: NanoBRET Target Engagement (TE) Intracellular Kinase Assay, CDK1/CCNB1
- Assay type: cell-based
- condition: NanoBRET TE intracellular kinase assay, 2-hour incubation, read-out: NanoBRET-CDK1/B1 IC50
pIC50: −log10 of the molar value.
property name: pIC50

>>> result("CCOc1cc(O)c(C=O)c(OCC(=O)Nc2cc([C@H]3CC[C@@H](OC(=O)N4CCC4(C)C)C3)[nH]n2)c1")
8.05

[A] CC(C)NC(=O)O[C@@H]1CC[C@H](c2cc(NC(=O)Cc3ncc(-c4cccc(O)c4C=O)s3)n[nH]2)C1
[B] COc1cccc(OCC(=O)Nc2cc([C@H]3CC[C@@H](OC(=O)NC(C)C)C3)[nH]n2)c1C=O
Q: Consider A and B . Which of these has its pIC50 at a higher number? Please identify the chosen entry by its label.
Ans: B

* * *

- target or system: CDK4-NanoLuc fusion with CCND1 in 293T or 293 cells (Homo sapiens, UniProt P11802)
- Construct: host or cells: 293T (ATCC CRL-3216) or 293 (ATCC CRL-1573)
- Sequence (P11802 whole entry, the tested form may be a part): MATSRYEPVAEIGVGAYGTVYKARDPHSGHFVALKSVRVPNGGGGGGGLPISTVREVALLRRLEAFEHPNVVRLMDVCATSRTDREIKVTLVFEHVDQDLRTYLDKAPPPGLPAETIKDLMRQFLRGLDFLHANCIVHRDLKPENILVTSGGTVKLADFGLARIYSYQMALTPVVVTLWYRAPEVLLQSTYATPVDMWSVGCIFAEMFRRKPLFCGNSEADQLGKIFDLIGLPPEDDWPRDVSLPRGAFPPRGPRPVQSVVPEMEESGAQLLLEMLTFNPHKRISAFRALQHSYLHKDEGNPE
- Sequence (P24385 whole entry partner, the tested form may be a part): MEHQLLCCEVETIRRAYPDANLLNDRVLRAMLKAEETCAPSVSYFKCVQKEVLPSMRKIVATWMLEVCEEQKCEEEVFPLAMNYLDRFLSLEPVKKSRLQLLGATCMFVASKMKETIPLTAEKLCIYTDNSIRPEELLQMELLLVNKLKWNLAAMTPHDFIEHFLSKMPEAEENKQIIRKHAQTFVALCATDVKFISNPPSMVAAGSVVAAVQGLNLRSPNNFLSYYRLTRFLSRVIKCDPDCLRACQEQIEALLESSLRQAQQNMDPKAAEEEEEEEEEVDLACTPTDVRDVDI
- procedure text: NanoBRET Target Engagement (TE) Intracellular Kinase Assay, CDK4/CCND1
- Assay type: cell-based
- condition: NanoBRET TE intracellular kinase assay, 2-hour incubation, read-out: NanoBRET-CDK4/D1 IC50
- Description: Inhibitory effects of compounds were measured in NanoBRET TE Intracellular Kinase Assay. […] NanoBRET signals (donor emission wavelength at 450 nm, acceptor emission wavelength at 610 nm) were measured using Envision plate reader (PerkinElmer). NanoBRET ratio was calculated by: BRET Ratio=raw signal for acceptor/raw signal for donor. […]
pIC50: −log10 of the molar value.
property name: pIC50

>>> result("COc1cc(O)c(C=O)c2c1CC(C(=O)Nc1cc([C@H]3CC[C@@H](OC(=O)NN(C)CC(F)(F)F)C3)[nH]n1)C2 (single isomer, unassigned) [Compound 264]")
6.29

[P] COc1cc(O)c(C=O)c(OCC(=O)Nc2cc([C@H]3CC[C@@H](OC(=O)N4CCCC45CC5)C3)[nH]n2)c1
[Q] COc1cc(O)c(C=O)c(OCC(=O)Nc2cc([C@H]3CC[C@@H](OC(=O)N4C[C@@H]5CC[C@H]4CO5)C3)[nH]n2)c1
[R] CCOc1cc(O)c(C=O)c(OCC(=O)Nc2cc([C@H]3CC[C@@H](OC(=O)NC4(C)CC4)C3)[nH]n2)c1
Q: I would appreciate it if you could sort these 3 molecules by pIC50, starting from the smallest number. Give me the labels in the order the question wants.
Ans: Q, P, R
(Q: 5.15, P: 5.64, R: 5.91)
